- experimentalSystem: T1, recombinant human IL-12 (rhIL-12) (human, UniProt P29459 23-219; P29460 23-328)
- T1 chain 1: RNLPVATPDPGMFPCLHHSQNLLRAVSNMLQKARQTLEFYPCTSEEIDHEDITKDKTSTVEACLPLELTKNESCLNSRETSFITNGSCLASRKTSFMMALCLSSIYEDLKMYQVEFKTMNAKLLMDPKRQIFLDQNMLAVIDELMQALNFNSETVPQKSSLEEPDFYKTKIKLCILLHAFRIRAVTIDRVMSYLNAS
- T1 chain 2: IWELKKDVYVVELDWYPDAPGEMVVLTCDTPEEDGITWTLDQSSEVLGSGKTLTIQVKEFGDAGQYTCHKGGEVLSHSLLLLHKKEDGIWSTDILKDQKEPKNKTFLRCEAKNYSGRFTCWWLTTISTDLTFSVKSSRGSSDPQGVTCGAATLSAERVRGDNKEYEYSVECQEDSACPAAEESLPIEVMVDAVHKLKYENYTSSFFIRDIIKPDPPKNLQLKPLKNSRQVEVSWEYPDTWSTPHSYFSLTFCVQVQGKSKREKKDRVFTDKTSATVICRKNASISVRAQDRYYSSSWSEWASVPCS
- testDescription: BIAcore
Recorded koff by entry
// note: answer is a bare numeric in s⁻¹

Some entries whose results are on file:
>>> df
                      binder  datavalue
0  SGGRSNIGSKTVK [Y61 L31 K]   0.000331
1  SGGRSNIGKNTVK [Y61 L30 K]   0.000346
2  SGGRSNIGSNKVK [Y61 L32 K]   0.000318

Can you look up the measured koff of SGGRSNIGSNQVK [Y61 L32 Q] for me?
0.00247

Can you look up the measured koff of SGGRSNIGSTTVK [Y61 L31 T] for me?
0.000309

Can you look up the measured koff of SGGRSNIGSNVVK [Y61 L32 V] for me?
0.00164
